- targetDesc: KDR (h) (Homo sapiens)
- Sequence (P35968 20-1356): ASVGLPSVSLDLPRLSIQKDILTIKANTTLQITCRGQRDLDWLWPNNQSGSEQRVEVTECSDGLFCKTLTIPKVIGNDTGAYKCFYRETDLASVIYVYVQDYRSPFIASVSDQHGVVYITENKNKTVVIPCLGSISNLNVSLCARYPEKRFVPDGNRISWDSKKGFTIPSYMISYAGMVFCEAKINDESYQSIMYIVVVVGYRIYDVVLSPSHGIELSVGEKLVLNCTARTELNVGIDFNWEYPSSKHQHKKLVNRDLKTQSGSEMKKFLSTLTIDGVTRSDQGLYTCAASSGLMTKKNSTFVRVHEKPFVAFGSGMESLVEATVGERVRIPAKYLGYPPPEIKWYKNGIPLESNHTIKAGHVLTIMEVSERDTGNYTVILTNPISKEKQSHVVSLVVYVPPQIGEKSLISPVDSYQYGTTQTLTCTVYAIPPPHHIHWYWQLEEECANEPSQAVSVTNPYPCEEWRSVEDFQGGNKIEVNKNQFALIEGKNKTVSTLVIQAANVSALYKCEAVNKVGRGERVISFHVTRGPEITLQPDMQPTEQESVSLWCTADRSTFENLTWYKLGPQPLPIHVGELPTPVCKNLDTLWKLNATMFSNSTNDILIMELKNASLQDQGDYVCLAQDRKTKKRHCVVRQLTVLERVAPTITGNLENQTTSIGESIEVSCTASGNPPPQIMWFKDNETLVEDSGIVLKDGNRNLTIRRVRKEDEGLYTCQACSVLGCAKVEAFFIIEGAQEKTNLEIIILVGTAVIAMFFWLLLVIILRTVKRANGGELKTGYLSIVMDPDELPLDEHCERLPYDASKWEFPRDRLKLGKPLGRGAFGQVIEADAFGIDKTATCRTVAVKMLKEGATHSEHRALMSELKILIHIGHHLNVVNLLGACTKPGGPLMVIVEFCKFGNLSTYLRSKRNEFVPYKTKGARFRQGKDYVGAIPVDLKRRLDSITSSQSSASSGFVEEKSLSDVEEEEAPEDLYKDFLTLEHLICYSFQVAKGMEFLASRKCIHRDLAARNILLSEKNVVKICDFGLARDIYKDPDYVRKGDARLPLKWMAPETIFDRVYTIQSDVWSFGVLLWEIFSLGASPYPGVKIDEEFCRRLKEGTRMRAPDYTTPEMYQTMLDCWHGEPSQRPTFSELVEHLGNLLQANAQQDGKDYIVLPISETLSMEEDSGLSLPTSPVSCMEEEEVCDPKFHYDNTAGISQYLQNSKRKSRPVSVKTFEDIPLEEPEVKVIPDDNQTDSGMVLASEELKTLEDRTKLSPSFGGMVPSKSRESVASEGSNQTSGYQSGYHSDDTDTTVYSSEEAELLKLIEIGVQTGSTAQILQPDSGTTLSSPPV
- testSummary: KDR (VEGFR2) (enzymatic assay), TR-FRET
- Assay type: biochemical
- assayConditions: read-out: VEGFR 2 (KDR) pIC50 (converted)
Binary call on IC50 with cut-off 10 nM: strictly below means Y, and equality or higher means N.

> print(dat)
                                    compound  class
 1  COc1cc(OC)c(F)c(N(Cc2cc(C)on2)c2ccc3ncc(-c4cnn(C)c4)nc3n2)c1      Y
 2  COc1cc(/N=c2\ccc3ncc(-c4cnn(C)c4)nc3n2CC2CCC(=O)N2CCO)c(F)c(OC)c1 (stereo not drawn) [Compound 247]      N
 3  COc1cc(/N=c2\ccc3ncc(-c4cnn(CC(C)(C)O)c4)nc3n2CC2CCC(=O)N2)c(F)c(OC)c1 (stereo not drawn)      N
 4  COc1cc(OC)c(F)c(N(CC2CC(O)C(=O)N2)c2ccc3ncc(-c4cnn(C)c4)nc3n2)c1 (stereo not drawn)      N
 5  COc1cc(/N=c2\ccc3ncc(-c4cnn(C)c4)nc3n2CC2COC(=O)N2)c(F)c(OC)c1 (stereo not drawn)      N
 6  COc1cc(OC)c(F)c(N(CC2CCCCO2)c2ccc3ncc(-c4cnn(C)c4)nc3n2)c1 (stereo not drawn)      N
 7  COc1cc(OC)cc(N(CCO)c2ccc3ncc(-c4ccncc4)nc3n2)c1      N
 8  COc1cc(OC)cc(N(Cc2ncc[nH]2)c2ccc3ncc(N4CCOCC4)nc3n2)c1      N
 9  COc1cc(OC)c(F)c(N(CC(C)(C)O)c2ccc3ncc(-c4cnn(C)c4)nc3n2)c1      N
10  COc1cc(OC)c(F)c(N(CC(C)(C)O)c2ccc3ncc(-c4cnn(C)c4)nc3n2)c1F      N
11  COc1cc(OC)cc(N(Cc2ncc[nH]2)c2ccc3ncc(-c4cnn(C5CCNCC5)c4)nc3n2)c1      N
12  COc1cc(OC)c(F)c(N(CC(C)(C)O)c2ccc3ncc(-c4cnn(CC(C)(C)O)c4)nc3n2)c1 (single isomer, unassigned)      N
13  COc1cc(OC)c(F)c(/N=c2\ccc3ncc(-c4cnn(C)c4)nc3n2CCN(C2COC2)C2COC2)c1F      Y
14  COc1cc(OC)c(F)c(N(CC#N)c2ccc3ncc(-c4cnn(C)c4)nc3n2)c1F      Y

* * *

Listed below: log10(IC50) values for each entry.
- targetDesc: FGFR3 (h) (Homo sapiens)
- Sequence (P22607 23-806): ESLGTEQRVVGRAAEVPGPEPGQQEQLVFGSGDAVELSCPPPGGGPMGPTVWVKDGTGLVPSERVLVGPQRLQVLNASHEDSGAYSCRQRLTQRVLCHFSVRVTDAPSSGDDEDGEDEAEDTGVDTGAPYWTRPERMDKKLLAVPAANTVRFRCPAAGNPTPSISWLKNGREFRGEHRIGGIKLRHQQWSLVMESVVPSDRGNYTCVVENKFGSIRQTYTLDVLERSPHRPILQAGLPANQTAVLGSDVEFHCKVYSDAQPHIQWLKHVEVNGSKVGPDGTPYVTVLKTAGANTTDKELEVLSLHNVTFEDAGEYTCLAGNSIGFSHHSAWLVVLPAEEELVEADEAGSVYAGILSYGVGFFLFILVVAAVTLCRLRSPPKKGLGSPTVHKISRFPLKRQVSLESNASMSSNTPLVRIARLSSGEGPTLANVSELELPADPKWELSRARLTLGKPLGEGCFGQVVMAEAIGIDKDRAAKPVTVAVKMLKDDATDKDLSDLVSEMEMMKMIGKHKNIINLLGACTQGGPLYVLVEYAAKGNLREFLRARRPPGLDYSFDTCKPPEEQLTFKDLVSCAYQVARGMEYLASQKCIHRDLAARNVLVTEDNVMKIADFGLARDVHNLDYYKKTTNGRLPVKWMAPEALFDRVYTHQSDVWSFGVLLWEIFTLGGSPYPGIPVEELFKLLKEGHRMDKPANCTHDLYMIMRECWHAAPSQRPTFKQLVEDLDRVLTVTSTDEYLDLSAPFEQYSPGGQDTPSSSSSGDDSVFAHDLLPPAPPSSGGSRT
- testSummary: FGFR3 (enzymatic assay), TR-FRET
- Format: biochemical
- assayConditions: average values if tested multiple times, read-out: FGFR 3 pIC50 (converted)
Counter-ions that a name gives are not always drawn.
propertyMeasured: log10(IC50) (log10 of the value in nM)

> print(dat)
                                    compound  value
 1  COc1cc(OC)cc(N(CC(O)C(F)(F)F)c2ccc3ncc(-c4cnn(C)c4)nc3n2)c1 (single isomer, unassigned) [Compound 33]  -0.15
 2  COc1cc(/N=c2\ccc3ncc(-c4cnn(C)c4)nc3n2CC(O)COC(C)C)c(F)c(OC)c1 (single isomer, unassigned)   0.25
 3  COc1cc(OC)c(F)c(N(Cc2ncc[nH]2)c2ccc3ncc(-c4cnn(C)c4)nc3n2)c1 [23-hydrochloric acid salt]  -0.11
 4  COc1ccc(Cl)c(N(Cc2ncc[nH]2)c2ccc3ncc(-c4cnn(C)c4)nc3n2)c1Cl   1.54
 5  COc1cc(OC)c(F)c(N(CC(O)COC(C)C)c2ccc3ncc(-c4cnn(C)c4)nc3n2)c1F (stereo not drawn) [Compound 62]   0.74
 6  COc1cc(/N=c2\ccc3ncc(-c4cnn(C)c4)nc3n2Cc2cc[nH]n2)c(F)c(OC)c1  -0.07
 7  COc1cc(OC)cc(N(CCNC(C)C)c2ccc3ncc(-c4cnn(C)c4)nc3n2)c1   0.70
 8  CNCCN(c1ccc2ncc(-c3cnn(C)c3)nc2n1)c1cc(OC)cc(OC)c1F   0.60
 9  COc1cc(OC)c(F)c(N(Cc2ncc[nH]2)c2ccc3ncc(-c4cnn(C)c4)nc3n2)c1 [23-lactate salt]  -0.02
10  COCC(O)CN(c1cc(OC)cc(OC)c1)c1ccc2ncc(-c3cnn(C)c3)nc2n1 (stereo not drawn)   0.20
11  COc1cc(OC)c(F)c(N(CC(O)COC(C)C)c2ccc3ncc(-c4cnn(C)c4)nc3n2)c1F (stereo not drawn) [Compound 61]   0.60
12  COc1cc(OC)c(Cl)c(N(Cc2ncc[nH]2)c2ccc3ncc(-c4cnn(C)c4)nc3n2)c1Cl   0.43
13  COc1cc(OC)c(Cl)c(/N=c2\ccc3ncc(-c4cnn(C)c4)nc3n2CC2CCC(=O)N2)c1Cl (single isomer, unassigned)   0.66
14  COCC(O)CN(c1ccc2ncc(-c3cnn(C)c3)nc2n1)c1cc(OC)cc(OC)c1F (single isomer, unassigned) [Compound 58]   0.10
15  COc1cc(OC)c(F)c(N(Cc2ncc[nH]2)c2ccc3ncc(-c4cnn(C)c4)nc3n2)c1 [23-phosphate salt]   0.04

Recorded values, source patent US9309242B2.
